experiment_description: Permeability of the compound at 5 mg/mL after 18 hrs by PAMPA
Format: physicochemical
recorded_conditions: read-out: permeability
observed_property: Papp at 18 h, 5 mg/mL (×10⁻⁶ cm/s)

Here is how some molecules turned out for Papp at 18 h, 5 mg/mL.
molecule | scale_unit | recorded_result
O=S(=O)(/C=C/c1ccc(O)c(O)c1)Cc1ccc(Cl)cc1 | ×10⁻⁶ cm/s | 3.3
O=S(=O)(/C=C/c1ccc(O)c(O)c1)Cc1ccc(C(F)(F)F)cc1 | ×10⁻⁶ cm/s | 4.3
COc1ccc(CS(=O)(=O)/C=C/c2ccc(O)c(O)c2)cc1 | ×10⁻⁶ cm/s | 6.4
O=S(=O)(/C=C/c1ccc(O)c(O)c1)CCc1ccccc1 | ×10⁻⁶ cm/s | 5.7
CC(C)(C)c1ccc(CS(=O)(=O)/C=C/c2ccc(O)c(O)c2)cc1 | ×10⁻⁶ cm/s | 4.7
O=S(=O)(/C=C/c1ccc(O)c(O)c1)CCCc1ccccc1 | ×10⁻⁶ cm/s | 4.1
[O-][S+](/C=C/c1ccc(O)c(O)c1)CCCCc1ccccc1 (stereo unspecified) | ×10⁻⁶ cm/s | 4.5
O=S(=O)(/C=C/c1ccc(O)c(O)c1)CCCCc1ccccc1 | ×10⁻⁶ cm/s | 4.1

1. [O-][S+](/C=C/c1ccc(O)c(O)c1)CCCc1ccccc1 (stereo unspecified)
2. COc1ccc(C[S+]([O-])/C=C/c2ccc(O)c(O)c2)cc1 (stereo unspecified)
Of 1 and 2 , whose reported Papp at 18 h, 5 mg/mL is numerically smaller? Your answer should be the label attached to the chosen record. 2

###

Test system: Radical scavenging activity
experiment_description: Antioxidant activity assessed as DPPH free radical scavenging effect after 30 mins by spectrophotometric analysis
Type: functional
pIC50: −log10 of the molar value.
observed_property: pIC50

I. O=S(=O)(/C=C/c1ccc(O)c(O)c1)Cc1ccc(Cl)cc1
II. [O-][S+](/C=C/c1ccc(O)c(O)c1)CCCc1ccccc1 (stereo unspecified)
Quick one: lower pIC50, I or II ? Field: selected label. Fill in the label of the entry you choose. II

a. [O-][S+](/C=C/c1ccc(O)c(O)c1)CCc1ccccc1 (stereo unspecified)
b. O=S(=O)(/C=C/c1ccc(O)c(O)c1)Cc1ccc(C(F)(F)F)cc1
Looking only at measured pIC50, which entry is lower, a or b ? Pick one; state its label. a

###

experiment_description: Permeability of the compound at 5 mg/mL after 18 hrs by PAMPA
Format: physicochemical
recorded_conditions: read-out: permeability
observed_property: Papp at 18 h, 5 mg/mL (×10⁻⁶ cm/s)

Solved cases (3 shown):
compound | recorded_result
[O-][S+](/C=C/c1ccc(O)c(O)c1)Cc1ccc(Cl)cc1 (stereo not given) | 4.1
[O-][S+](/C=C/c1ccc(O)c(O)c1)CCc1ccccc1 (stereo not given) | 5
[O-][S+](/C=C/c1ccc(O)c(O)c1)Cc1ccc(C(F)(F)F)cc1 (stereo not given) | 4.2

P. [O-][S+](/C=C/c1ccc(O)c(O)c1)Cc1ccccc1 (stereo not given)
Q. O=S(=O)(/C=C/c1ccc(O)c(O)c1)Cc1ccccc1
Which value of Papp at 18 h, 5 mg/mL is greater, the one for P or the one for Q ? Response format: the label of the selected entry. Q
(Q: 10.1 ×10⁻⁶ cm/s, P: 4.9 ×10⁻⁶ cm/s)

###

experiment_description: Antineuroinflammatory activity in mouse BV2 cells assessed as inhibition of LPS-induced nitric oxide production preincubated for 3 hrs followed by LPS challenge measured after 24 hrs by Griess assay
Assay type: functional, cell-based
recorded_conditions: BV-2
pIC50: −log10 of the molar value.
observed_property: pIC50

molecule | pIC50
[O-][S+](/C=C/c1ccc(O)c(O)c1)CCCCc1ccccc1 (stereo unspecified) | 4.43

A. O=S(=O)(/C=C/c1ccc(O)c(O)c1)Cc1ccccc1
B. COc1ccc(C[S+]([O-])/C=C/c2ccc(O)c(O)c2)cc1 (stereo unspecified)
C. O=S(=O)(/C=C/c1ccc(O)c(O)c1)CCCCc1ccccc1
Arrange the 3 molecules from largest to smallest pIC50. Please write the labels in the order that was asked for. A, C, B
(A: 4.94, C: 4.70, B: 4.48)

###

Test system: Radical scavenging activity
experiment_description: Antioxidant activity assessed as DPPH free radical scavenging effect after 30 mins by spectrophotometric analysis
Type: functional
pIC50: −log10 of the molar value.
observed_property: pIC50

P. [O-][S+](/C=C/c1ccc(O)c(O)c1)Cc1ccc(Cl)cc1 (configuration not stated)
Q. [O-][S+](/C=C/c1ccc(O)c(O)c1)Cc1ccccc1 (configuration not stated)
Pick the one with the larger pIC50: P vs Q Returns: label corresponding to the selected item. P
(P: 5.09, Q: 4.83)

###

experiment_description: Antineuroinflammatory activity in mouse BV2 cells assessed as inhibition of LPS-induced nitric oxide production preincubated for 3 hrs followed by LPS challenge measured after 24 hrs by Griess assay
Format: functional, cell-based
recorded_conditions: BV-2
pIC50: −log10 of the molar value.
observed_property: pIC50

compound | pIC50
O=S(=O)(/C=C/c1ccc(O)c(O)c1)Cc1ccc(Cl)cc1 | 4.93
O=S(=O)(/C=C/c1ccc(O)c(O)c1)Cc1ccc(C(F)(F)F)cc1 | 4.80
[O-][S+](/C=C/c1ccc(O)c(O)c1)CCCc1ccccc1 (configuration not stated) | 4.54

1. COc1ccc(CS(=O)(=O)/C=C/c2ccc(O)c(O)c2)cc1
2. [O-][S+](/C=C/c1ccc(O)c(O)c1)Cc1ccccc1 (configuration not stated)
3. O=S(=O)(/C=C/c1ccc(O)c(O)c1)CCc1ccccc1
Output the entries ranked by pIC50 from maximum down to minimum. List the labels according to the requested ordering. 1, 3, 2
(1: 4.92, 3: 4.51, 2: 4.30)

###

Test system: Radical scavenging activity
experiment_description: Antioxidant activity assessed as DPPH free radical scavenging effect after 30 mins by spectrophotometric analysis
Assay type: functional
pIC50: −log10 of the molar value.
observed_property: pIC50

compound | pIC50
O=S(=O)(/C=C/c1ccc(O)c(O)c1)CCCc1ccccc1 | 5.00
O=S(=O)(/C=C/c1ccc(O)c(O)c1)CCCCc1ccccc1 | 4.76
COc1ccc(C[S+]([O-])/C=C/c2ccc(O)c(O)c2)cc1 (stereo not given) | 4.94

I. O=S(=O)(/C=C/c1ccc(O)c(O)c1)Cc1ccccc1
II. [O-][S+](/C=C/c1ccc(O)c(O)c1)CCCCc1ccccc1 (stereo not given)
When their pIC50 values are compared, which is larger, I or II ? Refer to your chosen entry by its label in the reply. I

###

experiment_description: Antineuroinflammatory activity in mouse BV2 cells assessed as inhibition of LPS-induced nitric oxide production preincubated for 3 hrs followed by LPS challenge measured after 24 hrs by Griess assay
Format: functional, cell-based
recorded_conditions: BV-2
pIC50: −log10 of the molar value.
observed_property: pIC50

Some compounds with known pIC50 results, for comparison:
compound | pIC50
CC(C)(C)c1ccc(CS(=O)(=O)/C=C/c2ccc(O)c(O)c2)cc1 | 4.90
[O-][S+](/C=C/c1ccc(O)c(O)c1)CCc1ccccc1 (stereo unspecified) | 4.37
O=S(=O)(/C=C/c1ccc(O)c(O)c1)CCCc1ccccc1 | 4.98
[O-][S+](/C=C/c1ccc(O)c(O)c1)Cc1ccc(Cl)cc1 (stereo unspecified) | 4.85

a. [O-][S+](/C=C/c1ccc(O)c(O)c1)Cc1ccc(C(F)(F)F)cc1 (stereo unspecified)
b. CC(C)(C)c1ccc(C[S+]([O-])/C=C/c2ccc(O)c(O)c2)cc1 (stereo unspecified)
Return label of the item with the larger pIC50. Candidates: a , b . Label of pick, please. b
(b: 5.03, a: 4.81)

###

Tested on: Radical scavenging activity
experiment_description: Antioxidant activity assessed as DPPH free radical scavenging effect after 30 mins by spectrophotometric analysis
Type: functional
pIC50: −log10 of the molar value.
observed_property: pIC50

compound | recorded_result
O=S(=O)(/C=C/c1ccc(O)c(O)c1)CCc1ccccc1 | 4.98
CC(C)(C)c1ccc(C[S+]([O-])/C=C/c2ccc(O)c(O)c2)cc1 (stereo not given) | 5.00
CC(C)(C)c1ccc(CS(=O)(=O)/C=C/c2ccc(O)c(O)c2)cc1 | 5.02
[O-][S+](/C=C/c1ccc(O)c(O)c1)Cc1ccc(C(F)(F)F)cc1 (stereo not given) | 5.11
COc1ccc(CS(=O)(=O)/C=C/c2ccc(O)c(O)c2)cc1 | 5.04

Just for reference, ChEMBL document CHEMBL3259617 is where these values come from.
